bioavailability reference
assay_name: Oral bioavailability in Sprague-Dawley rat at 1 mg/kg
Assay type: ADME, organism-based
experimental_conditions: in vivo
A number alone suffices; assume %.

Check out these entries, answers already filled in.
Cc1c([C@H]2CN3CCN(C(=O)Cc4ccc(-n5cnnn5)cn4)C[C@H]3CO2)ccc(F)c1C#N 68
O=C1OCCc2cc([C@H]3CN4CCN(C(=O)Cc5ccc(-n6cnnn6)nc5)C[C@@H]4CO3)ccc21 98
Cc1c([C@H]2CN3CCN(C(=O)Cc4ccc(-n5cnnn5)nc4)C[C@H]3CO2)ccc2nonc12 100

Which bioavailability is reported for this compound? O=C1OCCc2cc([C@@H]3CN4CCN(C(=O)Cc5ccc(-n6cnnn6)nc5)C[C@H]4CO3)ccc21
65

###

assay_name: Dose normalized AUC in Sprague-Dawley rat at 1 mg/kg, po
Assay type: ADME, organism-based
experimental_conditions: in vivo
AUC/dose reference
A number alone suffices; assume µM·kg·h/mg.

Check out these entries, answers already filled in.
Cc1c(C#N)cccc1[C@@H]1CN2CCN(C(=O)Cc3ccc(-n4cnnn4)nc3)C[C@@H]2CO1 2
O=C1OCCc2cc([C@@H]3CN4CCN(C(=O)Cc5cnc(-n6cnnn6)nc5)C[C@H]4CO3)ccc21 0.18
Cc1c([C@@H]2CN3CCN(C(=O)Cc4ccc(-n5cnnn5)nc4)C[C@H]3CO2)ccc2c1COC2=O 2.05
Cc1c([C@H]2CN3CCN(C(=O)Cc4ccc(-n5cnnn5)nc4)C[C@H]3CO2)ccc2nonc12 1.8
O=C1OCCc2cc([C@H]3CN4CCN(C(=O)Cc5ccc(-n6cnnn6)nc5)C[C@@H]4CO3)ccc21 2.25
Cc1c([C@@H]2CN3CCN(C(=O)Cc4cnc(-n5cnnn5)cn4)C[C@H]3CO2)ccc(F)c1C#N 4.64
Cc1c([C@H]2CN3CCN(C(=O)Cc4ccc(-n5cnnn5)nc4)C[C@H]3CO2)ccc(F)c1C#N 1.8

Kindly review the next molecule as well.
Which AUC/dose is reported for this molecule? Cc1c([C@@H]2CN3CCN(C(=O)Cc4ccc(-n5cnnn5)nc4)C[C@@H]3CO2)ccc2c1COC2=O
2.02

###

measured_target: ATP-sensitive inward rectifier potassium channel 1 (Homo sapiens, UniProt P48048)
Sequence (P48048 whole entry): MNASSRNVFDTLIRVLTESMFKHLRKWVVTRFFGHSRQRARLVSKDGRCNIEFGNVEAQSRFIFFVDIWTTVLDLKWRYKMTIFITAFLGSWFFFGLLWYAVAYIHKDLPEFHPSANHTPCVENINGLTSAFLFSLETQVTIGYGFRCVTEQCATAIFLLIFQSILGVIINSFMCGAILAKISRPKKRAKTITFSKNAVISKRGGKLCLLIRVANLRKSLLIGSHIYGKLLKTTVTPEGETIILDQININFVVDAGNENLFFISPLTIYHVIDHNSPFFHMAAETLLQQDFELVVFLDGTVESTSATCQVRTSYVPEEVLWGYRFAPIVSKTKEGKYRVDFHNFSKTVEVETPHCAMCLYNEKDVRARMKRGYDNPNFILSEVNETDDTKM
assay_name: Inhibition of human ROMK expressed in CHO cells after 6 mins at -70 mV holding potential by electrophysiology method
pIC50: −log10 of the molar value.
Think of 7 as a floor: if pIC50 stands on it or above, it is TRUE; beneath it, FALSE.

Cc1c(C#N)cccc1[C@@H]1CN2CCN(C(=O)Cc3ccc(-n4cnnn4)nc3)C[C@H]2CO1 TRUE

Tell me whether pIC50 is at least 7 here: Cc1c([C@@H]2CN3CCN(C(=O)Cc4ccc(-n5cnnn5)nc4)C[C@@H]3CO2)ccc(F)c1C#N
TRUE

Tell me whether pIC50 is at least 7 here: Cc1c(C#N)cccc1[C@@H]1CN2CCN(C(=O)Cc3ccc(-n4cnnn4)nc3)C[C@@H]2CO1
TRUE

Tell me whether pIC50 is at least 7 here: Cc1c([C@@H]2CN3CCN(C(=O)Cc4ccc(-n5cnnn5)nc4)C[C@H]3CO2)ccc(F)c1C#N
TRUE

Tell me whether pIC50 is at least 7 here: O=C1OCCc2cc([C@H]3CN4CCN(C(=O)Cc5ccc(-n6cnnn6)nc5)C[C@@H]4CO3)ccc21
FALSE

###

measured_target: ATP-sensitive inward rectifier potassium channel 1 (Homo sapiens)
assay_name: Inhibition of human ROMK expressed in CHO cells after 6 mins at -70 mV holding potential by electrophysiology method
IC50 reference
A number alone suffices; assume nM.

Check out these entries, answers already filled in.
Cc1c([C@@H]2CN3CCN(C(=O)Cc4ccc(-n5cnnn5)nc4)C[C@H]3CS2)ccc2c1COC2=O 100
Cc1c([C@H]2CN3CCN(C(=O)Cc4ccc(-n5cnnn5)nc4)C[C@@H]3CO2)ccc2c1COC2=O 105
O=C(Cc1ccc(-n2cnnn2)nc1)N1CCN2C[C@H](c3ccc4nonc4c3)OC[C@@H]2C1 104
Cc1c(C#N)cccc1[C@H]1CN2CCN(C(=O)Cc3ccc(-n4cnnn4)nc3)C[C@H]2CO1 112

Which IC50 is reported for this compound? Cc1c([C@H]2CN3CCN(C(=O)Cc4cnc(-n5cnnn5)cn4)C[C@H]3CO2)ccc(F)c1C#N
107
